Biological target: Lethal(3)malignant brain tumor-like protein 1 (Homo sapiens)
Experiment: qHTS Assay for the Inhibitors of L3MBTL1; note: nearly all actives have a fitted effect of over 60% in size; note: potency is the fitted concentration of half-maximal effect
Conditions: AlphaScreen L3MBTL1–H3K9me1 peptide binding; series mostly up to 57.1 µM
Screen size: about 230,000 compounds; about 1,500 (0.65%) were called active. About 3% were inconclusive and are not listed. The full list was thinned out, with actives kept by preference.
Value Type: Potency

Cc1ccc(Cn2c(C)nc3c(c2=O)c2nc4ccccc4nc2n3Cc2ccco2)cc1 = 17.8 µM (active)
CCOc1ccc(S(=O)(=O)Nc2cccc(C(=O)NCC3(N4CCCCC4)CCCCC3)c2)cc1 = inactive
N#Cc1ccccc1CN1C(=O)S/C(=C/c2cccn2-c2cccc(C(=O)O)c2)C1=O = 22.4 µM (active)
COc1ccccc1-c1sc2ccccc2c1C#CC1(O)CCCCC1 = inactive
Cn1cccc1/C=C1\SC(=O)N(CC(=O)Nc2ccc(F)cc2)C1=O = inactive

Then there is this molecule:
Jot down Potency (Lethal(3)malignant brain tumor-like protein 1 (Homo sapiens)) of CC(NC(=O)c1ccccc1C(=O)O)c1ccc(-n2ccnc2)cc1 (stereo not given) .
inactive

---

Target: Lethal(3)malignant brain tumor-like protein 1 (Homo sapiens) (UniProt Q9Y468)
Sequence (Q9Y468 whole entry, looked up): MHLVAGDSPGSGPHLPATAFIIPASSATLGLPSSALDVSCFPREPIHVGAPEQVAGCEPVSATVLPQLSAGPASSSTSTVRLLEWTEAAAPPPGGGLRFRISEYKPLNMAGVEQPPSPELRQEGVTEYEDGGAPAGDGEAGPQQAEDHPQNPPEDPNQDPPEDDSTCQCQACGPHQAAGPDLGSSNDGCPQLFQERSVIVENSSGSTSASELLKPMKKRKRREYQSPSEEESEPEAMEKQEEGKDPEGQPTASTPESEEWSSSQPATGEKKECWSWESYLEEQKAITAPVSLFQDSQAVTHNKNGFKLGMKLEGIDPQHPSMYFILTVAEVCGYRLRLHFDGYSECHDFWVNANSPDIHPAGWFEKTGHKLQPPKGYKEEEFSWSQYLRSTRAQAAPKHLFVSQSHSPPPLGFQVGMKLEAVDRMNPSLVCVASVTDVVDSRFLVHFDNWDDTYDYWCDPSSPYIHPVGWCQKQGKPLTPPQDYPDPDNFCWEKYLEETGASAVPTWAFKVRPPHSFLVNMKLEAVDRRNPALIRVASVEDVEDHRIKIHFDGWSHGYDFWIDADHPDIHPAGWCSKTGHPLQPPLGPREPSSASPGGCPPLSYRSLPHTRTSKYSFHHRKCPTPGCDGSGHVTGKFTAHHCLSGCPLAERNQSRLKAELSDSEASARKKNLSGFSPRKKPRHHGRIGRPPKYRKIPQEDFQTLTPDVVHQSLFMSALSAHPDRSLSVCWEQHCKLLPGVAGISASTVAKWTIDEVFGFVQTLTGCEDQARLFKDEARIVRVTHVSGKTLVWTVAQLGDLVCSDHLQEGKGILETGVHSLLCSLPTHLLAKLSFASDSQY
Test: qHTS Assay for the Inhibitors of L3MBTL1; note: nearly all actives have a fitted effect of over 60% in size
Details: AlphaScreen L3MBTL1–H3K9me1 peptide binding; series mostly up to 57.1 µM
Hit rate of the full screen: of about 230,000 compounds, about 1,500 (0.65%) were called active. About 3% were inconclusive and are not listed. Calls come from the whole dose curve; as a rule, active = well fitted inhibition curve with a large enough effect; inconclusive = small, poorly fitted or top-dose-only effect; inactive = no such curve, though single readings can be large or run the other way. Only a selection was taken, and actives are over-represented in it overall.
Returns: one label drawn from active, inactive

Assay outcome for Cc1cccc(N=C2SC(C)CN2C(=O)CN2C(=O)NC3(CCCC3)C2=O)c1 (stereo not given) : what was it?
inactive

Assay outcome for CCn1c(=S)[nH]c2cc(S(=O)(=O)N3CCOCC3)ccc21 : what was it?
inactive

Assay outcome for CC1CCCN(C(=O)c2cc(-c3ccco3)nc3ccccc23)C1 (stereo not given) : what was it?
inactive

Assay outcome for CC(C)N(C(=O)CSc1nnc(NC2CC2)s1)c1ccccc1 : what was it?
inactive

Assay outcome for Cc1ccc(/C([O-])=C(/C(=S)NCc2ccco2)[n+]2ccccc2)cc1[N+](=O)[O-] : what was it?
active

Assay outcome for O=[N+]([O-])c1cccc(/C([O-])=C(/C(=S)Nc2ccccc2F)[n+]2ccccc2)c1 : what was it?
inactive

Assay outcome for O=C(COC(=O)c1ccco1)Nc1ccc(Cl)cn1 : what was it?
inactive

Assay outcome for CCOC(=O)/C=c1\s/c(=C\c2ccccc2OC)c(=O)n1CC(=O)N1CCOCC1 : what was it?
inactive

Assay outcome for CC(C)c1ccc(Nc2ncccc2C#N)cc1 : what was it?
inactive

Assay outcome for CC1(C)Cc2c(C#N)c(SCc3nc4ccccc4[nH]3)nc(N3CCOCC3)c2CO1 : what was it?
inactive

Assay outcome for CC(OC(=O)CNC(=O)c1ccc(Cl)c([N+](=O)[O-])c1)C(=O)NCc1ccco1 (stereo not given) : what was it?
inactive

Assay outcome for CSc1nc(-c2ccco2)nn1C(=O)CCc1ccccc1 : what was it?
inactive

Assay outcome for Cc1ccc2nc(-c3ccccc3)cc(C(=O)O)c2c1 : what was it?
inactive

Assay outcome for COCCNC(=O)Nc1ccc2nc(-c3ccco3)c(-c3ccco3)nc2c1 : what was it?
active

Assay outcome for O=c1[nH]c(N2CCOCC2)nc2ccccc12 : what was it?
inactive

Assay outcome for O=C(CSc1nnc(COc2ccc(Cl)cc2)n1Cc1ccco1)N1CCNC1=O : what was it?
inactive

Assay outcome for CCOc1ccccc1/C=c1\sc2nc(-c3ccco3)nn2c1=O : what was it?
active

Assay outcome for CC1CCCCC1NCC(=O)Nc1ccccc1C(=O)Nc1ccccc1 (stereo not given) : what was it?
inactive

Assay outcome for O=C(COC(=O)c1ccc(O)cc1)Nc1nccs1 : what was it?
inactive

Assay outcome for Cc1cc(C)c2nc(-c3ccco3)cc(C(=O)O)c2c1 : what was it?
active
